test system: Mus musculus; assay: Toxicity in CD-1 mouse allografted with mouse S180A cells assessed as change in body weight at maximum effective dose administered qd for 6 days (reference value: 18.2%); format: organism-based; conditions: 144 h
property: Activity

Cc1cnc(/C=N/NC(N)=S)c2cccc(N)c12    -4.8%
NC(=S)N/N=C/c1nccc2c(N)cccc12    -8.5%
NC(=S)N/N=C/c1nccc2ccccc12    -5.1%
N/C(S)=N/N=C/c1ccc(O)cn1    -3.3%
